Molecular target: GST-Aq-NF-kB (Amphimedon queenslandica, UniProt A9Y5G7 2-389)
Sequence: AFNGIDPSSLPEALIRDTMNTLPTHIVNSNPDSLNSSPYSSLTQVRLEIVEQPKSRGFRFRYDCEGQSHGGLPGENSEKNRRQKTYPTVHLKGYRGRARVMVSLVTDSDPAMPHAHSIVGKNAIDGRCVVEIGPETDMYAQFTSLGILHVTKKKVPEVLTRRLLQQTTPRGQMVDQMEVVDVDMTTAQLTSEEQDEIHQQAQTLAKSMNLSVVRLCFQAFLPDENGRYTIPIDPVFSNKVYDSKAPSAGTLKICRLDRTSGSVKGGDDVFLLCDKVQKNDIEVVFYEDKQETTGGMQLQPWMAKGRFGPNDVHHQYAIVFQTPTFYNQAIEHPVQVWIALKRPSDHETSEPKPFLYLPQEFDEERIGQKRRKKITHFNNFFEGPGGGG
Experiment: protein-binding microarray (PBM); PBM: ~300 nM protein, 6 mM HEPES pH 7.8, 80 mM KCl, 0.5 mM EDTA, 0.5 mM EGTA, 6% glycerol, 35 ng/ul poly-dIdC, 1% milk, 1 h, room temperature; high values mean tight binding
Conditions: dsDNA, one strand shown
# binding signal per entry
Answer in z-score, number only, no unit symbol.

Please review the entries below; each comes with its answer.
- CCGATTAACATCAGGGGTATTACTGATGTTAATCGGGTCTTGATTCGCTTGACGCTGCTG: 4.5
- CCGATTAACATCAAGGGGGAGATTGATGTTAATCGGGTCTTGATTCGCTTGACGCTGCTG: 5.27
- CCGATTAACATCAGAACTTCCCCTGATGTTAATCGGGTCTTGATTCGCTTGACGCTGCTG: 7.57
- CCGATTAACATCAAGGGACTTCCTGATGTTAATCGGGTCTTGATTCGCTTGACGCTGCTG: 6.58
- CCGATTAACATCAAGGAATACCCTGATGTTAATCGGGTCTTGATTCGCTTGACGCTGCTG: 5.58
- CCGATTAACATCAGGGGAATCACTGATGTTAATCGGGTCTTGATTCGCTTGACGCTGCTG: 7.41

Exercise: So what's the measured binding signal for this one? `CCGATTAACATCAGGGGCAACCCTGATGTTAATCGGGTCTTGATTCGCTTGACGCTGCTG`
Key: 5.52

Exercise: Again, but for `CCGATTAACATCACCAATTTCCCTGATGTTAATCGGGTCTTGATTCGCTTGACGCTGCTG`
Key: 3.17

Exercise: // next record `CCGATTAACATCAACGGGTCCCTTGATGTTAATCGGGTCTTGATTCGCTTGACGCTGCTG`
Key: 2.73

###

Target: GST-Ap-NF-kB RHD (Exaiptasia pallida (Aiptasia), UniProt A0A913YAJ5 2-422)
Sequence: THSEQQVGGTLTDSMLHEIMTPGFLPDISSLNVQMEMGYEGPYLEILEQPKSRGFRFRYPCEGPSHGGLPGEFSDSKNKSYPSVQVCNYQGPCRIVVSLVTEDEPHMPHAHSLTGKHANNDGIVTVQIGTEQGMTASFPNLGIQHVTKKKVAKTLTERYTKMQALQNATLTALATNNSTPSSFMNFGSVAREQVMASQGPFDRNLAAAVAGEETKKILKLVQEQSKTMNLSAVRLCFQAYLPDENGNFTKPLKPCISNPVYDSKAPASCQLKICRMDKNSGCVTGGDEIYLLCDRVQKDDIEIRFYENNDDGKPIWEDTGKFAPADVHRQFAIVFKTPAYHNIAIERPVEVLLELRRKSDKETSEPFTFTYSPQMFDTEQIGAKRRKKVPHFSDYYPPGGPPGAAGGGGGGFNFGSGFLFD
Test: protein-binding microarray (PBM); PBM: ~300 nM protein, 6 mM HEPES pH 7.8, 80 mM KCl, 0.5 mM EDTA, 0.5 mM EGTA, 6% glycerol, 35 ng/ul poly-dIdC, 1% milk, 1 h, room temperature; high values mean tight binding
Conditions: dsDNA, one strand shown
Each entry below carries its reported binding signal.
Provide the reading as a plain figure in z-score.

Reference set, count: 6
• CCGATTAACATCACCGTGGGAAATGATGTTAATCGGGTCTTGATTCGCTTGACGCTGCTG = 1.9
• CCGATTAACATCAAGGGAAATCCTGATGTTAATCGGGTCTTGATTCGCTTGACGCTGCTG = 5.35
• CCGATTAACATCAGAAATTACCCTGATGTTAATCGGGTCTTGATTCGCTTGACGCTGCTG = 3.88
• CCGATTAACATCAATGTGGGAAATGATGTTAATCGGGTCTTGATTCGCTTGACGCTGCTG = 1.32
• CCGATTAACATCAGGGAACTCCCTGATGTTAATCGGGTCTTGATTCGCTTGACGCTGCTG = 8.33
• CCGATTAACATCACCAAACCCCCTGATGTTAATCGGGTCTTGATTCGCTTGACGCTGCTG = 6.25

Exercise: Request the reported binding signal associated with `CCGATTAACATCAATCCCCCCCATGATGTTAATCGGGTCTTGATTCGCTTGACGCTGCTG`
Key: 7.7

Exercise: Again, but for `CCGATTAACATCAGGAAAACCCATGATGTTAATCGGGTCTTGATTCGCTTGACGCTGCTG`
Key: 2.63

Exercise: Consider next the sequence `CCGATTAACATCAAATTTCCCCCTGATGTTAATCGGGTCTTGATTCGCTTGACGCTGCTG` in the same way.
Key: 9.03

###

Target: GST-Co-NF-kB (Capsaspora owczarzaki, UniProt F1ARL5 200-546)
Sequence: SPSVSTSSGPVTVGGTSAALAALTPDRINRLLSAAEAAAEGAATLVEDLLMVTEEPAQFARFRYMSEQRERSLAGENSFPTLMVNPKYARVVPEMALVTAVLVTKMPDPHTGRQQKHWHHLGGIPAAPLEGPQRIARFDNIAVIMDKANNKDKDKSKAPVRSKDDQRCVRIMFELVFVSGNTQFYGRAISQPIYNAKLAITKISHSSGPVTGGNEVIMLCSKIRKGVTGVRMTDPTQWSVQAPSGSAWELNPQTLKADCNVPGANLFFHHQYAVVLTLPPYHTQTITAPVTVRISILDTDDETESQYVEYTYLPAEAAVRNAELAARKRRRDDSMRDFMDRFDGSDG
Experiment: protein-binding microarray (PBM); PBM: ~300 nM protein, 6 mM HEPES pH 7.8, 80 mM KCl, 0.5 mM EDTA, 0.5 mM EGTA, 6% glycerol, 35 ng/ul poly-dIdC, 1% milk, 1 h, room temperature; high values mean tight binding
Conditions: dsDNA, one strand shown
Recorded Metric: binding signal (z-score)
State just the number; it will be interpreted in z-score.

- CCGATTAACATCAACCATTCCCCTGATGTTAATCGGGTCTTGATTCGCTTGACGCTGCTG: 4.68
- CCGATTAACATCAAGAGACCCCCTGATGTTAATCGGGTCTTGATTCGCTTGACGCTGCTG: 2.08
- CCGATTAACATCATATTCCCCCATGATGTTAATCGGGTCTTGATTCGCTTGACGCTGCTG: 8.84
- CCGATTAACATCAGAATATCCCCTGATGTTAATCGGGTCTTGATTCGCTTGACGCTGCTG: 3.97

--- query ---
Exercise: Under GST-Co-NF-kB (Capsaspora owczarzaki, UniProt F1ARL5 200-546): binding signal value of `CCGATTAACATCAAATTCCCATGTGATGTTAATCGGGTCTTGATTCGCTTGACGCTGCTG` ?
Key: 1.96

###

Molecular target: GST-Aq-NF-kB (Amphimedon queenslandica, UniProt A9Y5G7 2-389)
Sequence: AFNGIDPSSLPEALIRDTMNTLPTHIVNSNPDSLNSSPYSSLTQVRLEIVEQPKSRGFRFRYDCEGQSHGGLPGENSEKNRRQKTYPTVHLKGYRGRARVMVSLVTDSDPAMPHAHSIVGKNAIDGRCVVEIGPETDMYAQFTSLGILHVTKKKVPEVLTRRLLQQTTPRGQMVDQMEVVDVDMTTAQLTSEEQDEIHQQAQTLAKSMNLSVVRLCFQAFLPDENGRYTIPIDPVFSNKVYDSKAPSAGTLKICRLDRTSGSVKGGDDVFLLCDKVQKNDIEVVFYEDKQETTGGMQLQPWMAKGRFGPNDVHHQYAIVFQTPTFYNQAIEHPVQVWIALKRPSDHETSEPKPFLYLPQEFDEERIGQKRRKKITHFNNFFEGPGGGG
Test: protein-binding microarray (PBM); PBM: ~300 nM protein, 6 mM HEPES pH 7.8, 80 mM KCl, 0.5 mM EDTA, 0.5 mM EGTA, 6% glycerol, 35 ng/ul poly-dIdC, 1% milk, 1 h, room temperature; Ap Aiptasia and Nv Nematostella (sea anemones) / Co Capsaspora / Aq Amphimedon (sponge) / Dm Drosophila / Hu human; RHD is the Rel homology domain; high values mean tight binding
Conditions: dsDNA, one strand shown
# class assignment by measured binding signal: Low (below 3 z-score), Medium (3 z-score to below 5 z-score), High (5 z-score or more)

Examples with answers:
* CCGATTAACATCAAAAACCCCCCTGATGTTAATCGGGTCTTGATTCGCTTGACGCTGCTG | High
* CCGATTAACATCAATTTTCCCCGTGATGTTAATCGGGTCTTGATTCGCTTGACGCTGCTG | High
* CCGATTAACATCAATCTTTTCCCTGATGTTAATCGGGTCTTGATTCGCTTGACGCTGCTG | Medium
* CCGATTAACATCATGGGGGAAAATGATGTTAATCGGGTCTTGATTCGCTTGACGCTGCTG | High
* CCGATTAACATCAACGGAAATCCTGATGTTAATCGGGTCTTGATTCGCTTGACGCTGCTG | Low

Exercise: Could you place `CCGATTAACATCAGAAACTTTCCTGATGTTAATCGGGTCTTGATTCGCTTGACGCTGCTG` in its proper category? Many thanks.
Key: Low

Exercise: // same read-out, input: `CCGATTAACATCAACCACCCCCCTGATGTTAATCGGGTCTTGATTCGCTTGACGCTGCTG`
Key: Medium

Exercise: Also check `CCGATTAACATCACGGGAGTCCCTGATGTTAATCGGGTCTTGATTCGCTTGACGCTGCTG`
Key: High

Exercise: // query: `CCGATTAACATCAAAGTCCCGGGTGATGTTAATCGGGTCTTGATTCGCTTGACGCTGCTG`
Key: Medium

Exercise: Query `CCGATTAACATCAGGCATTCCCATGATGTTAATCGGGTCTTGATTCGCTTGACGCTGCTG` next
Key: Low

Exercise: Here is the next sequence: `CCGATTAACATCAGGGAAAAGGATGATGTTAATCGGGTCTTGATTCGCTTGACGCTGCTG`
Key: Low

Exercise: Field entry: `CCGATTAACATCAGGGGACTCCATGATGTTAATCGGGTCTTGATTCGCTTGACGCTGCTG`
Key: Medium
